system: NCI-H322M lung; assay: NCI-60 one-dose screen, 48 h; conditions: 10 µM unless noted
This is part of a sample that, as a whole, favours compounds with a hit. Of some 83,000 tested, about 20% had one in any assay. The source made the active and inactive calls. How the source made its calls: active means growth percent below 10; inactive means the rest.
Pick one and only one: 1 (active), -1 (inactive)

>  <COMPOUND>
O=S(=O)(c1cccc(NC2=Nc3cccc4cccc2c34)c1)N1CCCC1

>  <QUALITATIVE_LABEL>
-1

$$$$
>  <COMPOUND>
O=C(N/N=C/c1ccncc1)c1ccccc1Nc1cccc(C(F)(F)F)c1

>  <QUALITATIVE_LABEL>
-1

$$$$
>  <COMPOUND>
CN(Cc1ccccc1)c1nc(Cl)c(C2CC(c3ccc(Cl)cc3)=Cc3[nH][nH]c(=O)c32)s1 (centres undefined)

>  <QUALITATIVE_LABEL>
-1

$$$$
>  <COMPOUND>
NS(=O)(=O)c1cccc(NC(=O)C(=O)C2C(=O)Nc3ccccc32)c1 (centres undefined)

>  <QUALITATIVE_LABEL>
-1

$$$$

Look up the recorded call for O=S(=O)(NCCCNc1nccc(-c2c(-c3ccccc3)nc3occn23)n1)c1ccc(Cl)cc1 in this test.
-1

Look up the recorded call for O=S(=O)(NCCNc1nccc(-c2c(-c3ccc(F)c(O)c3)nc3occn23)n1)c1ccccc1 in this test.
-1

Look up the recorded call for Cc1cc2nc(-c3ccccc3)c(-c3ccccc3)nc2cc1C in this test.
-1

Look up the recorded call for CC(C)Sc1nc(NN)c(C#N)c(-c2ccccc2)n1 in this test.
-1

Look up the recorded call for NC(=O)c1ncn(C2OC(CO)C(O)C2O)n1 (centres undefined) in this test.
-1

Look up the recorded call for C[C@]12C[C@H]1CC[C@]1(C)[C@@H]2CC[C@@]23C[C@H](CC[C@H]21)[C@@](O)(CO)C3 in this test.
-1

Look up the recorded call for O=[N+]([O-])c1cccc(-c2nc(-c3ccc(Cl)cc3Cl)cn2-c2ccccc2)c1 in this test.
-1

Look up the recorded call for C=C1C(=O)O[C@H]2[C@H]1CC/C(COC(=O)/C=C/c1c[nH]c3ccccc13)=C\CC[C@@]1(C)O[C@@H]21 in this test.
1

Look up the recorded call for Clc1nc(Cl)c2ncn(CCOCCn3cnc4c(Cl)nc(Cl)nc43)c2n1 in this test.
1

Look up the recorded call for Fc1ccc(-n2cc(COc3ncnc4sc5c(c34)CCCC5)nn2)cc1Cl in this test.
-1
